Target Of Assay: Neurogenic locus notch homolog protein 3 (Homo sapiens)
Experiment Notes: NOTCH3 binders on small-molecule microarray, primary screen, biochemical, 635/667 nm fluorescence (AID 1096)
Recorded Conditions: NOTCH3 binding, 635 nm fluorescence, higher = more signal
Is composite z-score at least 0.5? Then criterion met. If not, criterion not met.

>>> classification("C#CCCCON=C1C[C@@H](O)[C@@H](O)[C@@H]2[C@@H]3C(=O)N(C4CCCCC4)C(=O)[C@@H]3CC[C@H]12")
"criterion met"
>>> classification("C[C@@H](ON=C1[C@H]2CCn3c(=O)n(-c4ccccc4)c(=O)n3[C@H]2[C@H](O)[C@@H]2O[C@H]12)c1cn([C@H](CO)Cc2ccccc2)nn1")
"criterion met"
>>> classification("CC(C)=NOC[C@@H](O)COCc1ccco1")
"criterion not met"
>>> classification("CC(C)C(=O)N[C@@H]1CCCN1C(=O)C=Cc1ccccc1")
"criterion met"
>>> classification("COC(=O)[C@H](C)NC(=O)CCC1CC(OC(=O)NCCc2ccc(F)cc2)CC2(CCCC(COC(=O)NCCCN3CCCC3=O)O2)O1 (stereo partly drawn)")
"criterion met"
>>> classification("COc1ccc(COC(=O)NN=C2C[C@@H](O)[C@@H](O)[C@@H]3[C@@H]4C(=O)N(C(C)(C)C)C(=O)[C@@H]4CC[C@H]23)cc1")
"criterion not met"
>>> classification("CO[C@H]1COC(=O)CC=C[C@@H](C)COC(=O)[C@@H](OCc2ccccc2)C=C[C@@H]1C")
"criterion not met"
>>> classification("O=C1[C@H]2[C@H]3[C@H](O)[C@H](O)CC(=NOCc4ccccc4)[C@H]3CC[C@H]2C(=O)N1Cc1ccccc1")
"criterion not met"
>>> classification("CCN1C(=O)[C@H]2[C@H]3[C@H](O)[C@H](O)CC(=NNC(=O)OCc4ccc(OC)cc4)[C@H]3CC[C@H]2C1=O")
"criterion not met"
>>> classification("CCN1C(=O)[C@H]2[C@H]3[C@H](O)[C@H](O)CC(=NOC)[C@@H]3CC[C@H]2C1=O")
"criterion not met"
>>> classification("CO[C@@H]1COC(=O)CC=C[C@H](C)COC(=O)[C@H](C)NC(=O)CC=C[C@H]1C")
"criterion not met"
>>> classification("CCCNC(=O)OC[C@H]1O[C@H](CCON=C(C)CCC(=O)OC[C@H]2O[C@H](C#Cc3ccccc3)C=C[C@@H]2Oc2ccc(C)cc2)C=C[C@@H]1Oc1ccc(OC)cc1")
"criterion not met"
>>> classification("CCOC(=O)CCN1C(=O)[C@H]2[C@H]3[C@H](O)[C@H](O)CC(=NNC(=O)OCC)[C@@H]3CC[C@H]2C1=O")
"criterion not met"
>>> classification("CC(C)=NOCc1ccc(-c2cn([C@@H]3COC[C@H]3O)nn2)cc1")
"criterion not met"
>>> classification("CC(C)CCN1CCc2nc(-c3ccccc3)c3c(c2C1)CO[C@@H](C)C3")
"criterion met"
>>> classification("CCOC(=O)NN=C1C[C@@H](O)[C@@H](O)[C@@H]2[C@@H]3C(=O)N(Cc4ccc5c(c4)OCO5)C(=O)[C@@H]3CC[C@@H]12")
"criterion not met"
>>> classification("C[C@@H](c1ccccc1)N1C(=O)[C@H]2[C@H]3[C@H](O)[C@H](O)CC(=O)[C@@H]3CC[C@H]2C1=O")
"criterion met"

Attribution: PubChem BioAssay
